// provenance: paper PMC3817407

- assayed system: T1, ECF15_524
- T1 chain: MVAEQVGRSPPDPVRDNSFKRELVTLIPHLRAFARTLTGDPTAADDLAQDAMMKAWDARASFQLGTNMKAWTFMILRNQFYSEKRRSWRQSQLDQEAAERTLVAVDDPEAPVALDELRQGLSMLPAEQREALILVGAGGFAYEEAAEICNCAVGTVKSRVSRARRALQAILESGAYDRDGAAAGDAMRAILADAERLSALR

binder: AS27_4265 (protein) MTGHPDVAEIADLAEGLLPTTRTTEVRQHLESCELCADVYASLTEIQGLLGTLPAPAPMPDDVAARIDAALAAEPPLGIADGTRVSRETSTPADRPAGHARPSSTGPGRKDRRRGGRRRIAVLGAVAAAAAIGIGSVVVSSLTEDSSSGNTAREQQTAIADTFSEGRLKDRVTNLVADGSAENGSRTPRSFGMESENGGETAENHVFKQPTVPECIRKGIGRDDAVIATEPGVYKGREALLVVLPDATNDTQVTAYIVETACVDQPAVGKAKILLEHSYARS
fold repression: 2.74
--
binder: AS25_1645 (protein) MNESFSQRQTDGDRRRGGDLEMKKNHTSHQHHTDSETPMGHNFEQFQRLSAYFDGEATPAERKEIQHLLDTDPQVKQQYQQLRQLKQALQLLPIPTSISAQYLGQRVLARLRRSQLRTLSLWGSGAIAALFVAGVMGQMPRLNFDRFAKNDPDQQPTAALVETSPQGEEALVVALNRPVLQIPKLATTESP
fold repression: 6.73
